- Assayed target: human GHS-R1a receptor (growth hormone secretagogue receptor 1a) (human, UniProt Q92847 1-366)
- Sequence (Q92847 whole entry): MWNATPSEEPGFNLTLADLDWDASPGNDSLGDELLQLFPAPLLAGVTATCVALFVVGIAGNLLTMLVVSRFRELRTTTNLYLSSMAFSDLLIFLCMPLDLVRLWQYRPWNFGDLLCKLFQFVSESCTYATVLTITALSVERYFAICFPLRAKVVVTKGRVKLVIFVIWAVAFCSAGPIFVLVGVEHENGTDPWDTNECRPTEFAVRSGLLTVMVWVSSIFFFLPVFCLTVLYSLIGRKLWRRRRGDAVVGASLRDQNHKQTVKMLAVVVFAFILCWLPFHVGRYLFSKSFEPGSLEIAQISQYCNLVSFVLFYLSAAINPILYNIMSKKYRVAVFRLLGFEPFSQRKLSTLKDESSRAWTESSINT
- Procedure text: cell-based or functional assay
// returns F unless IP1 - EC50 [nM] (inositol phosphate accumulation, IP-One HTRF) is strictly below 7 nM, in which case T

Take a look at these entries with their results.
**Query** Take the binder XSXFLSPEHQKAQQRKESKKPPAKLQPR (sarcosine (Sar) at position 1; diaminopropionic acid N-decanoyl (Dpr-N-dec) at position 3, Synthetic ghrelin analog) [ghrelin analog no. 1, (Sar)S(Dpr-N-dec)FLSPEHQKAQQRKESKKPPAKLQPR] and say whether its IP1 - EC50 [nM] (inositol phosphate accumulation, IP-One HTRF) is less than 7 nM.
**Result** F

**Query** Take the binder XSXXLSPEHQKAQQRKESKKPPAKLQPR (sarcosine (Sar) at position 1; diaminopropionic acid N-myristoyl (Dpr-N-myr) at position 3; cyclohexylalanine (Cha) at position 4, Synthetic ghrelin analog) [ghrelin analog no. 6, (Sar)S(Dpr-N-myr)(Cha)LSPEHQKAQQRKESKKPPAKLQPR] and say whether its IP1 - EC50 [nM] (inositol phosphate accumulation, IP-One HTRF) is less than 7 nM.
**Result** T

**Query** Take the binder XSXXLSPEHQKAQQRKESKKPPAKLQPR (sarcosine (Sar) at position 1; diaminopropionic acid N-myristoyl (Dpr-N-myr) at position 3; 1-naphtylalanine (1-Nal) at position 4, Synthetic ghrelin analog) [ghrelin analog no. 4, (Sar)S(Dpr-N-myr)(1-Nal)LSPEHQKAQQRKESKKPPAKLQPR] and say whether its IP1 - EC50 [nM] (inositol phosphate accumulation, IP-One HTRF) is less than 7 nM.
**Result** F

**Query** Take the binder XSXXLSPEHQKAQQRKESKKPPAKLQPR (sarcosine (Sar) at position 1; diaminopropionic acid N-decanoyl (Dpr-N-dec) at position 3; cyclohexylalanine (Cha) at position 4, Synthetic ghrelin analog) [ghrelin analog no. 5, (Sar)S(Dpr-N-dec)(Cha)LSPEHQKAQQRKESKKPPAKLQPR] and say whether its IP1 - EC50 [nM] (inositol phosphate accumulation, IP-One HTRF) is less than 7 nM.
**Result** T

**Query** Take the binder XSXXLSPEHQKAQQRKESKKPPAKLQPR (sarcosine (Sar) at position 1; diaminopropionic acid N-decanoyl (Dpr-N-dec) at position 3; 1-naphtylalanine (1-Nal) at position 4, Synthetic ghrelin analog) [ghrelin analog no. 3, (Sar)S(Dpr-N-dec)(1-Nal)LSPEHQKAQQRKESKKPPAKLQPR] and say whether its IP1 - EC50 [nM] (inositol phosphate accumulation, IP-One HTRF) is less than 7 nM.
**Result** T

Shift focus to the following entry.
**Query** Take the binder GSXFLSPEHQKAQQRKESKKPPAKLQPR (diaminopropionic acid (Dpr) bearing octanoyl at position 3, Synthetic ghrelin analog) [Dpr^3ghrelin] and say whether its IP1 - EC50 [nM] (inositol phosphate accumulation, IP-One HTRF) is less than 7 nM.
**Result** F
